assay-protocol: logP determination by HPLC (EEC directive 79/831 Annex V. A8)
Format: physicochemical
experimental-context: HPLC gradient method, acetonitrile/0.1% aqueous phosphoric acid; Table 1
Protocol: *) The logP values were determined in accordance with EEC directive 79/831 Annex V. A8 by HPLC (gradient method, acetonitrile/0.1% aqueous phosphoric acid)
property-measured: logP*

| smiles-notation | property-measured | observed-value |
| --- | --- | --- |
| Fc1cc(F)c(-c2c(Cl)nc3ncnn3c2NOCc2cccc(C(F)(F)F)c2)c(F)c1 | logP* | 3.39 |
| Fc1cc(F)c(-c2c(Cl)nc3ncnn3c2NOCc2cc(Cl)cc(Cl)c2)c(F)c1 | logP* | 3.73 |
| Fc1cc(F)c(-c2c(Cl)nc3ncnn3c2NOCc2cccc(Cl)c2)c(F)c1 | logP* | 3.27 |
| CC(C)CN(N)c1c(-c2c(F)cccc2Cl)c(Cl)nc2ncnn12 | logP* | 2.94 |

====

assay-protocol: logP determination by HPLC (EEC directive 79/831 Annex V. A8)
Assay type: physicochemical
experimental-context: HPLC gradient method, acetonitrile/0.1% aqueous phosphoric acid; Table 1
logP* vs 3: at or above is 1, below is -1.

| molecule | class |
| --- | --- |
| CCONc1c(-c2ccccc2F)c(Cl)nc2ncnn12 [Example 57] | -1 |
| CCONc1c(-c2c(F)cccc2F)c(Cl)nc2ncnn12 [Example 102] | -1 |
| Fc1cc(F)c(-c2c(Cl)nc3ncnn3c2NNCC2CCCO2)c(F)c1 (stereo not drawn) [Example 52] | -1 |
| Fc1cccc(F)c1-c1c(Cl)nc2ncnn2c1NOCc1ccc(Cl)cc1 [Example 47] | 1 |
| CC(C)CN(N)c1c(-c2c(F)cc(F)cc2F)c(Cl)nc2ncnn12.Cl [Example 153] | -1 |
| CC(C)CONc1c(-c2c(F)cccc2F)c(Cl)nc2ncnn12 [Example 8] | -1 |
| Fc1ccccc1-c1c(Cl)nc2ncnn2c1NOCc1ccc(Cl)cc1Cl [Example 97] | 1 |
| CCC(C)NNc1c(-c2cccc(C(F)(F)F)c2Cl)c(Cl)nc2ncnn12 (stereo not drawn) [Example 145] | 1 |

====

assay-protocol: logP determination by HPLC (EEC directive 79/831 Annex V. A8)
Type: physicochemical
experimental-context: HPLC gradient method, acetonitrile/0.1% aqueous phosphoric acid; Table 1; read-out: logP*
Procedure: *) The logP values were determined in accordance with EEC directive 79/831 Annex V. A8 by HPLC (gradient method, acetonitrile/0.1% aqueous phosphoric acid)
Measured chromatographic logP, listed per entry.
property-measured: chromatographic logP

| compound | property-measured | observed-value |
| --- | --- | --- |
| NN(CC1CCCCC1)c1c(-c2c(F)cc(F)cc2F)c(Cl)nc2ncnn12 [Example 22] | chromatographic logP | 3.67 |
| C=CCNNc1c(-c2c(F)cc(F)cc2F)c(Cl)nc2ncnn12 [Example 24] | chromatographic logP | 2.48 |

====

Measured chromatographic logP, listed per entry.
assay-protocol: logP determination by HPLC (EEC directive 79/831 Annex V. A8)
Type: physicochemical
experimental-context: HPLC; preparation examples; read-out: HPLC: logP
property-measured: chromatographic logP

| smiles-notation | property-measured | observed-value |
| --- | --- | --- |
| CC(C)(C)ONc1c(-c2c(F)cccc2F)c(Cl)nc2ncnn12 | chromatographic logP | 2.59 |
| C[C@H](N(SC(F)(Cl)Cl)c1c(-c2c(F)cc(F)cc2F)c(Cl)nc2ncnn12)C(F)(F)F | chromatographic logP | 4.74 |
